Biological target: L-lactate dehydrogenase (Plasmodium falciparum (isolate CDC / Honduras))
Experiment: PfLDH activity inhibition – cell lysate, 3D7 strain, counter-screen for P. falciparum growth inhibition project (AID 2304);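 further: 0% = vehicle and 100% = reference inhibitor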
Details: P. falciparum 3D7 crude extract, LDH APAD/NBT absorbance; at 2 µM; hits give high values
ENDPOINT_NAME: inhibition (%)

- MOLECULE: "CCNc1cc(C(=O)N[C@@H](Cc2ccccc2)[C@H](O)CNC2CCCC2)cc(N2CCCC2=O)c1"
  SYSTEM: "L-lactate dehydrogenase (Plasmodium falciparum (isolate CDC / Honduras))"
  RESULT_NUMBER: 2
- MOLECULE: "CCNc1cc(C)nc(Nc2ccc(NC(=O)C3CCCC3)cc2)n1"
  SYSTEM: "L-lactate dehydrogenase (Plasmodium falciparum (isolate CDC / Honduras))"
  RESULT_NUMBER: 0
- MOLECULE: "COc1ccc(NC(=O)c2ccc3cc4ccccc4cc3c2)cc1N1CCN(C)CC1"
  SYSTEM: "L-lactate dehydrogenase (Plasmodium falciparum (isolate CDC / Honduras))"
  RESULT_NUMBER: 1
- MOLECULE: "CC[C@@]1(O)C(=O)OCc2c1cc1n(c2=O)Cc2c-1nc1cc3c(cc1c2CN1CCN(C)CC1)OCCO3"
  SYSTEM: "L-lactate dehydrogenase (Plasmodium falciparum (isolate CDC / Honduras))"
  RESULT_NUMBER: 1
- MOLECULE: "O=S(=O)(NCCN1CCCC1)c1ccc(-c2ccc(CNCc3ccccc3)cc2)s1"
  SYSTEM: "L-lactate dehydrogenase (Plasmodium falciparum (isolate CDC / Honduras))"
  RESULT_NUMBER: -5
- MOLECULE: "CN(C)CCOc1ccc2c(c1)OC(C)(C)C=C2c1cccc2ccccc12"
  SYSTEM: "L-lactate dehydrogenase (Plasmodium falciparum (isolate CDC / Honduras))"
  RESULT_NUMBER: -2
- MOLECULE: "CCCc1cc(Cc2cnc(N)nc2N)ccc1OCCCCCC(=O)OCC"
  SYSTEM: "L-lactate dehydrogenase (Plasmodium falciparum (isolate CDC / Honduras))"
  RESULT_NUMBER: 0
- MOLECULE: "CC(=O)Nc1cccc(/C=C/C(=O)N2CCC(N3CCCCC3)CC2)c1"
  SYSTEM: "L-lactate dehydrogenase (Plasmodium falciparum (isolate CDC / Honduras))"
  RESULT_NUMBER: 1
- MOLECULE: "Oc1ccc(CCNc2nc(NCCCOc3cccc(CN4CCCCC4)c3Cl)nc(N3CCNCC3)n2)cc1"
  SYSTEM: "L-lactate dehydrogenase (Plasmodium falciparum (isolate CDC / Honduras))"
  RESULT_NUMBER: 5
- MOLECULE: "O=C(/C=C/c1ccc(Cl)c(Cl)c1)N1CCN(C(=O)Nc2ccc(C(F)(F)F)cc2)CC1"
  SYSTEM: "L-lactate dehydrogenase (Plasmodium falciparum (isolate CDC / Honduras))"
  RESULT_NUMBER: 4
- MOLECULE: "O=C(Cn1c(CCc2cccc(F)c2F)nc(=O)c2cccnc21)N(Cc1ccc(-c2ccc(C(F)(F)F)cc2)cc1)C1CCN(C2CCOCC2)CC1"
  SYSTEM: "L-lactate dehydrogenase (Plasmodium falciparum (isolate CDC / Honduras))"
  RESULT_NUMBER: 1
- MOLECULE: "Oc1ccc(-c2nc3c4cc(I)ccc4c4ccc(I)cc4c3[nH]2)cc1"
  SYSTEM: "L-lactate dehydrogenase (Plasmodium falciparum (isolate CDC / Honduras))"
  RESULT_NUMBER: 2
- MOLECULE: "COc1cc(CC2c3cc(O)c(Cl)cc3CCN2C)c(OC)cc1C (stereo not drawn)"
  SYSTEM: "L-lactate dehydrogenase (Plasmodium falciparum (isolate CDC / Honduras))"
  RESULT_NUMBER: 0
- MOLECULE: "O=C(Nc1cccc([N+](=O)[O-])c1)Nc1ccc(Cl)c(C(F)(F)F)c1"
  SYSTEM: "L-lactate dehydrogenase (Plasmodium falciparum (isolate CDC / Honduras))"
  RESULT_NUMBER: 6
- MOLECULE: "FC(F)(F)COc1ccc(CCNCCCCNCCc2ccc(OCC(F)(F)F)c3ccccc23)c2ccccc12"
  SYSTEM: "L-lactate dehydrogenase (Plasmodium falciparum (isolate CDC / Honduras))"
  RESULT_NUMBER: 4
- MOLECULE: "CCC(C(=O)Nc1cc(=O)[nH]c2nc(-c3ccco3)nn12)c1ccccc1 (stereo not drawn)"
  SYSTEM: "L-lactate dehydrogenase (Plasmodium falciparum (isolate CDC / Honduras))"
  RESULT_NUMBER: -1
- MOLECULE: "O=C(/C=C/c1ccc(Cl)c(Cl)c1)NCCCCCN1CCCC(CNC(=O)/C=C/c2ccccc2)C1 (stereo not drawn)"
  SYSTEM: "L-lactate dehydrogenase (Plasmodium falciparum (isolate CDC / Honduras))"
  RESULT_NUMBER: -7
- MOLECULE: "c1ccc(CNCc2cccc(-c3cccc(-c4nc5ccccc5[nH]4)c3)c2)cc1"
  SYSTEM: "L-lactate dehydrogenase (Plasmodium falciparum (isolate CDC / Honduras))"
  RESULT_NUMBER: -5
- MOLECULE: "Cc1cccc2[nH]c(-c3ccc(-c4cccc(CN5CCCC5CN)c4)cc3)nc12 (stereo not drawn)"
  SYSTEM: "L-lactate dehydrogenase (Plasmodium falciparum (isolate CDC / Honduras))"
  RESULT_NUMBER: 3
- MOLECULE: "O=C(Nc1nccs1)c1cn(-c2ccccc2)nc1-c1ccc(Cl)s1"
  SYSTEM: "L-lactate dehydrogenase (Plasmodium falciparum (isolate CDC / Honduras))"
  RESULT_NUMBER: 0
- MOLECULE: "CN(CCN)Cc1ccc(-c2ccc(-c3nc4ccc(C(F)(F)F)cc4[nH]3)s2)cc1"
  SYSTEM: "L-lactate dehydrogenase (Plasmodium falciparum (isolate CDC / Honduras))"
  RESULT_NUMBER: 2
- MOLECULE: "CCc1cn2c3c(cc(C(=O)N[C@@H](Cc4cccc(Cl)c4)[C@H](O)CNC4CCOCC4)cc13)N(C)S(=O)(=O)CC2"
  SYSTEM: "L-lactate dehydrogenase (Plasmodium falciparum (isolate CDC / Honduras))"
  RESULT_NUMBER: -1
- MOLECULE: "O=C(Nc1cccc(CN2CCN(C(=O)c3cccs3)CC2)c1)c1cccs1"
  SYSTEM: "L-lactate dehydrogenase (Plasmodium falciparum (isolate CDC / Honduras))"
  RESULT_NUMBER: 3
- MOLECULE: "CC1(C)N=C(N)N=C(N)N1OCCCCCOc1ccccc1"
  SYSTEM: "L-lactate dehydrogenase (Plasmodium falciparum (isolate CDC / Honduras))"
  RESULT_NUMBER: 4
- MOLECULE: "COc1cc(NC(=O)c2ccc3oc4ccccc4c3c2)ccc1OCCN1CCCCC1"
  SYSTEM: "L-lactate dehydrogenase (Plasmodium falciparum (isolate CDC / Honduras))"
  RESULT_NUMBER: -4
- MOLECULE: "CCn1c(-c2nonc2N)nc2c(C#CC(C)(C)O)ncc(OCCNCCc3ccc(OC)cc3)c21"
  SYSTEM: "L-lactate dehydrogenase (Plasmodium falciparum (isolate CDC / Honduras))"
  RESULT_NUMBER: -7
- MOLECULE: "Nc1nc(N)c2c(Cc3ccc(Br)cc3)cccc2n1"
  SYSTEM: "L-lactate dehydrogenase (Plasmodium falciparum (isolate CDC / Honduras))"
  RESULT_NUMBER: 0
- MOLECULE: "CC(=O)Nc1cccc(C(=O)Nc2cccc(-c3ccc(-c4nc5ccc(F)cc5[nH]4)s3)c2)c1"
  SYSTEM: "L-lactate dehydrogenase (Plasmodium falciparum (isolate CDC / Honduras))"
  RESULT_NUMBER: -1
- MOLECULE: "CN1CCN(Cc2c(O)ccc3c(=O)c(Oc4ccc(C(C)(C)C)cc4)c(C(F)(F)F)oc23)CC1"
  SYSTEM: "L-lactate dehydrogenase (Plasmodium falciparum (isolate CDC / Honduras))"
  RESULT_NUMBER: 4
- MOLECULE: "Nc1nc2ncn(COC(COCc3ccccc3)COCc3ccccc3)c2c(=O)[nH]1 (tested in a mixture with another compound)"
  SYSTEM: "L-lactate dehydrogenase (Plasmodium falciparum (isolate CDC / Honduras))"
  RESULT_NUMBER: -7
- MOLECULE: "Oc1ccc(Nc2nc(N3CCCC3)c3ccccc3n2)cc1"
  SYSTEM: "L-lactate dehydrogenase (Plasmodium falciparum (isolate CDC / Honduras))"
  RESULT_NUMBER: -6
- MOLECULE: "CCCCCCOc1ccc(C(=O)N[C@H]2CCN(CCCCCNC(=O)/C=C/c3ccc(Cl)c(Cl)c3)C2)cc1"
  SYSTEM: "L-lactate dehydrogenase (Plasmodium falciparum (isolate CDC / Honduras))"
  RESULT_NUMBER: -5
- MOLECULE: "CCn1c(SCc2ccccc2)nc2c1c(=O)[nH]c(=O)n2C"
  SYSTEM: "L-lactate dehydrogenase (Plasmodium falciparum (isolate CDC / Honduras))"
  RESULT_NUMBER: -1
- MOLECULE: "CN(C)c1ccc(C=Cc2ccc3ccccc3n2)c(Cl)c1"
  SYSTEM: "L-lactate dehydrogenase (Plasmodium falciparum (isolate CDC / Honduras))"
  RESULT_NUMBER: 1
- MOLECULE: "O=C(Cn1c(CCc2cccc(F)c2F)cc(=O)c2ccccc21)N(Cc1ccc(-c2ccc(C(F)(F)F)cc2)cc1)C1CCN(CCN2CCOCC2)CC1"
  SYSTEM: "L-lactate dehydrogenase (Plasmodium falciparum (isolate CDC / Honduras))"
  RESULT_NUMBER: 4
- MOLECULE: "COc1cc(NC(=O)N2CCOC(CCN3CCC(c4ccccc4)CC3)(c3ccc(Cl)c(Cl)c3)C2)cc(OC)c1 (stereo not drawn)"
  SYSTEM: "L-lactate dehydrogenase (Plasmodium falciparum (isolate CDC / Honduras))"
  RESULT_NUMBER: 0
- MOLECULE: "NS(=O)(=O)c1cccc(-c2ccc3ncc(N4CCOCC4)nc3c2)c1"
  SYSTEM: "L-lactate dehydrogenase (Plasmodium falciparum (isolate CDC / Honduras))"
  RESULT_NUMBER: -4
- MOLECULE: "CC(C)N1CCN(C(CN2CCN(CCCOc3ccc4nonc4c3)CC2)c2ccc(F)cc2)CC1 (stereo not drawn)"
  SYSTEM: "L-lactate dehydrogenase (Plasmodium falciparum (isolate CDC / Honduras))"
  RESULT_NUMBER: -3
